- Tested on: U2OS
- test description: Incucyte cell viability with U2OS; further: filed as whole numbers so only -1 and 0 and 1 occur
- Assay type: toxicity, cell-based
- experimental setup: human, 12 h, 10 µM, compound concentration 10 uM, replicate number 1, timepoint 12 hours
Please provide measured Growth Rate for the entries that follow.
One number for each entry.

compound | Growth Rate
Cl.Clc1ccc(CCCOCCCN2CCCCC2)cc1 [PITOLISANT HYDROCHLORIDE] | 1
CNC(=O)Nc1ccc(-c2nc(N3CC4CCC(C3)O4)c3cnn(C4CCC5(CC4)OCCO5)c3n2)cc1 | 0

Please give Growth Rate for each item listed below.
1. CN1CCN(Cc2cc(NC(=O)c3ccc4c(c3)CN(c3ccccc3)CC4)cc(C(F)(F)F)c2)CC1
2. O=C(O)Cn1c(C(=O)Nc2nc(-c3ccccc3Cl)cs2)cc2ccccc21
3. COc1cc(-c2cn([C@H]3CCc4ccccc4N(CC(F)(F)F)C3=O)nn2)ccc1-n1ccc(C)n1
4. COc1ccc(S(=O)(=O)c2cc(OC)ccc2S(=O)(=O)c2ccc([C@H](C)NS(C)(=O)=O)cc2)cc1

[out]
0
1
0
0
